Molecular target: acetylcholinesterase (AChE) from electric eel (Electrophorus electricus)
Could you mark each record Satisfied if its IC50 falls strictly under 40 µM, and Not satisfied if it equals or exceeds it?

{"molecule": "CCCCCCCCCCNC(=O)Oc1ccc(Cl)cc1C(=O)Nc1ccc(Cl)c(Cl)c1 [6h]", "qualitative label": "Satisfied"}
{"molecule": "CCCCCNC(=O)Oc1ccc(Cl)cc1C(=O)Nc1ccc(Cl)c(Cl)c1 [6c]", "qualitative label": "Not satisfied"}
{"molecule": "CCCCCCCCNC(=O)Oc1ccc(Cl)cc1C(=O)Nc1ccc(Cl)cc1 [5f]", "qualitative label": "Not satisfied"}
{"molecule": "CCCCCCCCCNC(=O)Oc1ccc(Cl)cc1C(=O)Nc1cccc(Cl)c1 [4g]", "qualitative label": "Satisfied"}
{"molecule": "CCCCCNC(=O)Oc1ccc(Cl)cc1C(=O)Nc1ccc(Cl)cc1 [5c]", "qualitative label": "Not satisfied"}

Given the entry CCCCCCCCNC(=O)Oc1ccc(Cl)cc1C(=O)Nc1ccc(Cl)c(Cl)c1 [6f] , would its reported IC50 be below 40 µM? Satisfied

Strictly below 40 µM in IC50? CCCCCCCCCCCNC(=O)Oc1ccc(Cl)cc1C(=O)Nc1ccc(Cl)c(Cl)c1 [6i] Satisfied

hey, is IC50 for CCCCCCCCCCNC(=O)Oc1ccc(Cl)cc1C(=O)Nc1cccc(Cl)c1 [4h] lower than 40 µM or not? Not satisfied

# TODO verify IC50 < 40 µM strictly for this molecule: CCCCCCCNC(=O)Oc1ccc(Cl)cc1C(=O)Nc1ccc(Cl)cc1 [5e] Not satisfied

Quick check: IC50 of CCCCNC(=O)Oc1ccc(Cl)cc1C(=O)Nc1ccc(Cl)cc1 [5b] under 40 µM? Not satisfied

====

Test: Lipophilicity determination by RP-HPLC (capacity factor k / log k)
Assay type: physicochemical
Settings: Symmetry C18, MeOH 70% / H2O 30%, column 45 °C
measurement label: log k

Example results:
{"smiles string": "CCCCCCCCNC(=O)Oc1ccc(Cl)cc1C(=O)Nc1cccc(Cl)c1", "log k": 0.7831}
{"smiles string": "CCCCCCCNC(=O)Oc1ccc(Cl)cc1C(=O)Nc1ccc(Cl)c(Cl)c1", "log k": 1.0667}
{"smiles string": "CCCCCCCCNC(=O)Oc1ccc(Cl)cc1C(=O)Nc1ccc(Cl)cc1", "log k": 0.7899}
{"smiles string": "CCCCCCCCCCCNC(=O)Oc1ccc(Cl)cc1C(=O)Nc1ccc(Cl)cc1", "log k": 0.7947}

# lookup: log k of CCCCCCCNC(=O)Oc1ccc(Cl)cc1C(=O)Nc1cccc(Cl)c1 0.7772

====

Molecular target: acetylcholinesterase (AChE) from electric eel (Electrophorus electricus, UniProt O42275)
Sequence (O42275 24-633): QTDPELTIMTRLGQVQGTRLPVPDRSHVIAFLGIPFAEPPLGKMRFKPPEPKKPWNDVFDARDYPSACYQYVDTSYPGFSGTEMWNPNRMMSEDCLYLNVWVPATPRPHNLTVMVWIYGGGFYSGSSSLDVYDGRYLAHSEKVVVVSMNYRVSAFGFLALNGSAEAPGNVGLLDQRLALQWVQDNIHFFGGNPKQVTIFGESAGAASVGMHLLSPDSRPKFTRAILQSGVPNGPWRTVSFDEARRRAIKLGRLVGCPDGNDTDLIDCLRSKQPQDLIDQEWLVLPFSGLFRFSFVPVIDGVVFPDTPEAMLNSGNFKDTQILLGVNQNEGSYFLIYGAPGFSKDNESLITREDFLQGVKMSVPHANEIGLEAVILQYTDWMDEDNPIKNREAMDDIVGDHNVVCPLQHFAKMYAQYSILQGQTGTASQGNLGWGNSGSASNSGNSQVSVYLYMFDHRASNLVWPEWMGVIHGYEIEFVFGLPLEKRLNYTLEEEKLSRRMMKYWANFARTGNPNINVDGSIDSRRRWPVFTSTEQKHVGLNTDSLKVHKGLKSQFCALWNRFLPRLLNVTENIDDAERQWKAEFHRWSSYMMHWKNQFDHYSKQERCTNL
IC50 strictly under 60 µM means label 1; at 60 µM or over means label 0.

Reference set (3 entries):
{"molecule": "CCCCCCCCNC(=O)Oc1ccc(Cl)cc1C(=O)Nc1cccc(Cl)c1 [4f]", "qualitative label": "label 0"}
{"molecule": "CCCCCNC(=O)Oc1ccc(Cl)cc1C(=O)Nc1cccc(Cl)c1 [4c]", "qualitative label": "label 1"}
{"molecule": "CCNC(=O)Oc1ccc(Cl)cc1C(=O)Nc1ccc(Cl)c(Cl)c1 [6a]", "qualitative label": "label 0"}

Please find the next molecule below.
Is it true that IC50 reported for CCCCCCCCCNC(=O)Oc1ccc(Cl)cc1C(=O)Nc1ccc(Cl)c(Cl)c1 [6g] is less than 60 µM? label 1

====

Catalogue of compounds with associated log k
Test: Lipophilicity determination by RP-HPLC (capacity factor k / log k)
Type: physicochemical
Details: Symmetry C18, MeOH 70% / H2O 30%, column 45 °C
Just the number, please.

{"compound": "CCCCCCNC(=O)Oc1ccc(Cl)cc1C(=O)Nc1ccc(Cl)c(Cl)c1 [6d]", "log k": 1.0611}
{"compound": "CCCCCCCCCCNC(=O)Oc1ccc(Cl)cc1C(=O)Nc1cccc(Cl)c1 [4h]", "log k": 0.7873}
{"compound": "CCCCCCCNC(=O)Oc1ccc(Cl)cc1C(=O)Nc1ccc(Cl)cc1 [5e]", "log k": 0.7872}

Dear colleague, I am looking for the recorded log k of the following compound: CCCCCCCCCCNC(=O)Oc1ccc(Cl)cc1C(=O)Nc1ccc(Cl)c(Cl)c1 [6h] 1.0894

Using the record for CCCCCCCCCNC(=O)Oc1ccc(Cl)cc1C(=O)Nc1ccc(Cl)cc1 [5g] , report its log k. 0.7919
